- assay-system: UniProt:P9WNU7
- Sequence (P9WNU7 whole entry): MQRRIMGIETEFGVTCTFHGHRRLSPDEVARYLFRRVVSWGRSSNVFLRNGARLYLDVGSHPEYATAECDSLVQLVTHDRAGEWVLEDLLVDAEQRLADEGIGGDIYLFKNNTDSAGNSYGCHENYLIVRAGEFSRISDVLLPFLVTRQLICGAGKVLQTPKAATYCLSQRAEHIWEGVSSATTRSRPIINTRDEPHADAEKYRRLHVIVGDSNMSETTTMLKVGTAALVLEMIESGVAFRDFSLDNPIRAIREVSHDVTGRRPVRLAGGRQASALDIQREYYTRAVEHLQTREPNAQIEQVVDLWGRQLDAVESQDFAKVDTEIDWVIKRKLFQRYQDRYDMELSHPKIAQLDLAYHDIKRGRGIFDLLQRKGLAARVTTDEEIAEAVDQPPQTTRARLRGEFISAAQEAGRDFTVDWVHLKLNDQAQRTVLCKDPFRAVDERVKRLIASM
Kindly state IC50 for each of the entries shown.
Give the number; µM is assumed, so skip it.

Notebook: `O=C(O)/C=C/c1ccc(-c2ccc(O)c(C34CC5CC(CC(C5)C3)C4)c2)cc1` , IC50 read as 17.9

Entry `Oc1c(Cl)cc(Cl)cc1Sc1cc(Cl)cc(Cl)c1O` — recorded IC50 = 15.9

---

- assay-system: Pup--protein ligase (Corynebacterium glutamicum, UniProt Q8NQE1)
- Sequence (Q8NQE1 whole entry): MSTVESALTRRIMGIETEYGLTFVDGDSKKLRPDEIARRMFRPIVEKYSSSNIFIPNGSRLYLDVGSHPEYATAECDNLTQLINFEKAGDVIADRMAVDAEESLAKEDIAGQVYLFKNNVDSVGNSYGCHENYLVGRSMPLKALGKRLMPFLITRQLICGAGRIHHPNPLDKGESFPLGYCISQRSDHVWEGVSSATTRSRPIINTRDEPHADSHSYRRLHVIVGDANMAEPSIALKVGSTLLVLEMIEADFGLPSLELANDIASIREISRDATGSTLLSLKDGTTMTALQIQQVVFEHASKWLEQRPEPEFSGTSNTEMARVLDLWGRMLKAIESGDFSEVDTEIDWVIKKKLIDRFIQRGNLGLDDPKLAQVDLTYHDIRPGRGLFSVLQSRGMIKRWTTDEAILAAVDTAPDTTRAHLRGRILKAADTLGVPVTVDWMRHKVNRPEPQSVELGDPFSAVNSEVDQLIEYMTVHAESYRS
- assay-explanation: Activation of Corynebacterium glutamicum PafA expressed in Escherichia coli BL-21(DE3) assessed as pup-ylation using Mtb KasA substrate by SDS-PAGE analysis
reported-metric: EC50
Respond with a number, then the unit of measure.

Reading of EC50 for COCCn1c2c([n+](Cc3cnccn3)c1C)C(=O)c1ccccc1C2=O [SEPANTRONIUM] with Pup--protein ligase (Corynebacterium glutamicum, UniProt Q8NQE1): 2000 nM
